System: Hs-578T
Assay: NCI tumour cell line growth inhibition, 48 h
The source made the active and inactive calls. Rule as the data show it: active = GI50 up to about 1.1 µM and inactive = higher.
Classes used: true (1) (active), false (0) (inactive)

1. CC1/C(=N/O)CC(c2ccccc2)N(N=O)C1c1ccccc1 (stereo not given): false (0)
2. CC(NC(=O)c1ccc(OP(=O)(OCC2=CC(=O)c3ccccc3C2=O)N(C)CCCCCl)cc1)c1ccc(OCC2CCCCC2)c(C(N)=O)c1 (stereo not given): false (0)
3. CC1=C2c3c(C)ccc4ccc(C)c(c34)C2(O)C(C)C1=O (stereo not given): false (0)
4. S=C1/C(=N/c2ccccc2)N(c2ccccc2)/C(=N\c2ccccn2)N1c1ccccc1: false (0)
5. Cc1ccc2c(O)cc(-c3ccccc3)nc2n1: true (1)
